Taken from PubChem BioAssay (NCI).

System: MCF7 breast
Assay: NCI tumour cell line growth inhibition, 48 h
Answer each item with its documented TGI.

Could I get TGI for every one of these entries?
1. COc1nc(N)c(NC2OC(CO)C(O)C2O)c(=O)[nH]1 (configuration not stated)
2. CCOC(=O)CSc1nc(-c2ccccc2)c(C#N)c(=O)[nH]1
3. Cn1c2c(cc(S(=O)(=O)c3ccccc3)c1=O)CCc1c-2cnn1-c1ccc(Cl)cc1
4. CC(C)[C@@H]1NC(=O)[C@H]2N=C(O[C@@H]2C)[C@@H]2CCCN2C(=O)[C@H](Cc2ccccc2)NC(=O)[C@@H]2CSC(=N2)[C@@H](Cc2ccccc2)NC(=O)[C@@H]2CSC1=N2
5. COc1nc2c(c(=O)n1C)N(C(C)=O)C1C(N2)OCC(OC(C)=O)C1OC(C)=O (configuration not stated)
6. C/C=C/[P+](c1ccccc1)(c1ccccc1)c1ccccc1
7. CCOC(=O)/C(C(=S)Nc1ccccc1)=C(/N)N1CCCC1

> 100 µM
> 100 µM
> 100 µM
> 50 µM
> 10 µM
> 45.5 µM
> 100 µM

Could I get TGI for every one of these entries?
1. COc1ccc(C2CC(c3cc(OC)c(OC)c(OC)c3)=NN2C(C)=O)cc1OCC(=O)Nc1nc2ccc(C(F)(F)F)cc2s1 (configuration not stated)
2. NC(=O)NN=C(CS)CS
3. C=Cc1c(C)c(OC)cc2c1Oc1ccc(OC)c(C)c1CC2
4. COc1cccc(/C=C2/Sc3scc(-c4ccccc4)[n+]3C2=O)c1O
5. C1=NCCNCCN=Cc2ccc(cc2)OCc2cccc(n2)COc2ccc1cc2

> 100 µM
> 69 µM
> 100 µM
> 100 µM
> 100 µM

###

Test system: SF-268 CNS
Experiment: NCI tumour cell line growth inhibition, 48 h
Answer each item with its documented TGI.

COC(=O)C1=CSC2(S1)C(C(=O)OC)=CSc1c2ssc1=Nc1ccccc1 (stereo not given)	> 100 µM
O=C(O[C@H]1[C@@H](O)[C@H](n2cnc3c(Cl)ncnc32)O[C@@H]1COC(c1ccccc1)(c1ccccc1)c1ccccc1)c1ccccc1	61.3 µM
CCO[C@]12C[C@H](OC)[C@@]3(O)CC(C1[C@H]3OCc1ccccc1)C13C4C2[C@H](OC)C1[C@](COC)(CN4CC)[C@H](O)C[C@@H]3OC (stereo not given in full)	> 100 µM

Could I get TGI for every one of these entries?
1. Cc1cc2c3ccc(C)[n+](C)c3ccc2n1C
2. CCC1CN2CCc3cc(OC)c(OC)cc3C2CC1CC1c2cc(OC)c(OC)cc2CCN1C(=O)C1CCCN1C(=O)OCc1ccccc1 (stereo not given)
3. CC1(C)CS(=O)(=O)CC(C)(C)C(=N/N)/C1=N\N

1. 15.9 µM
2. 31.9 µM
3. > 100 µM

Could I get TGI for every one of these entries?
1. O=C1c2c(c3c4ccccc4[nH]c3c3ccc4ccccc4c23)C(=O)N1CCN1CCCCC1
2. O=c1oc2ccccc2cc1/C=N/N1C(=S)N(c2ccccc2)C(=Nc2ccccc2)C1=Nc1ccccc1
3. [N-]=[N+]=Nc1c(-c2ccccc2)c(Cl)nc2ccccc12
4. Cc1ccc(Oc2ccc(C)cc2[N+](=O)[O-])cc1

1: > 100 µM; 2: > 100 µM; 3: > 100 µM; 4: > 100 µM

###

Test system: HCT-116 colon
Experiment: NCI tumour cell line growth inhibition, 48 h
Answer each item with its documented TGI.
Numbers only, in µM.

// below: answered compounds
COc1cccc(C=Nc2cc(C)ccn2)c1O.COc1cccc(C=Nc2cc(C)ccn2)c1O.[Cu]	32.3
Cc1ccc(-c2cc(-c3ccc(C)cc3)nc(NCCNc3ccnc4cc(Cl)ccc34)n2)cc1	3.44
CCC1C(c2cc(OC)c(OC)c(OC)c2)c2cc3c(cc2OC1N1CCCC1)OCO3 (stereo unspecified)	11.5

Could I get TGI for every one of these entries?
1. O=c1oc2ccccc2c2c(=O)c3ccc(OC/C(=N/O)c4ccc(Cl)cc4)cc3oc12
2. CN1CCN(Cc2ccc(NC(=O)c3cncc(C#Cc4cnc(N)c5ccncc45)c3)cc2C(F)(F)F)CC1
3. Nc1ncnc2[nH]ncc12

1: 24; 2: 3.04; 3: 10.5

Recall the recorded TGI for C=C1CC2OC2(C(=O)O[C@H]2CCC3[C@@H]4CCC5=CC(=O)CC[C@]5(C)C4CC[C@@]32C)C1=O (stereo partly specified) with HCT-116 colon and state it.
13.8

###

Answer each item with its documented TGI.
Test system: SN12C renal
Assay: NCI tumour cell line growth inhibition, 48 h

// below: answered compounds
CCOC(=O)C1Oc2ccc([N+](=O)[O-])c3c2C1(O)CCC3 (centres undefined)	> 100 µM
Cn1c(/C=C(\O)c2ccc(Cl)cc2)nc2ccccc21	> 100 µM
C/C(=N\Nc1nc2ccccc2s1)c1ncccn1	25.2 µM

Look up TGI: O=NC1C(Cl)C2CC1C1C(Br)C(Br)CC21 (centres undefined)
> 100 µM

###

Tested on: 786-0 renal
Assay: NCI tumour cell line growth inhibition, 48 h
Answer each item with its documented TGI.

// below: answered compounds
COCn1c2ccc(OC(C)=O)cc2c2c(=O)oc(N(C)C)nc21	> 100 µM
O=C(NNC1=NCCN1)c1ccco1	> 100 µM
[N-]=[N+]=Nc1c(-c2ccccc2)c(Cl)nc2ccccc12	> 100 µM

Please look at the following compound next.
Look up TGI: CN(C)c1ccc(/C=N\NC(=O)CSCC(=O)N/N=C/c2ccc(N(C)C)cc2)cc1
> 100 µM

###

Test system: SF-295 CNS
Assay: NCI tumour cell line growth inhibition, 48 h
Answer each item with its documented TGI.
One number for each entry, in µM.

Could I get TGI for every one of these entries?
1. CC1=C(N2CC2)C(=O)c2nc3n(c2C1=O)CCC3OC(=O)CCl (configuration not stated)
2. COc1ccc(C2CC(c3cc(OC)c(OC)c(OC)c3)=NN2C(C)=O)cc1OCC(=O)Nc1nc2ccc(C(F)(F)F)cc2s1 (configuration not stated)
3. C=C1CC[C@@H]2[C@](C)(COC(C)=O)[C@@H](O)CC[C@@]2(C)[C@@H]1COc1ccc2ccc(=O)oc2c1
4. O=c1cc(-c2cccc(Cl)c2)[nH]c2ncccc12

1: 0.204; 2: 11.5; 3: 79.1; 4: 0.438

Could I get TGI for every one of these entries?
1. CNC(=O)N1CN(c2ccccc2)C2(CCN(CCCC(=O)c3ccc(F)cc3)CC2)C1=O
2. CN(C)CCCNc1ccc2ncn3c4ccccc4c(=O)c1c23
3. CCN=C1C=CC(=C(c2ccc(N)cc2)c2ccc(N(CC)CC)c(C)c2)C=C1
4. CCC(NC(C)c1ccccc1)C(O)c1ccc(OCc2ccccc2)c(OCc2ccccc2)c1 (configuration not stated)

[31, 39, 0.745, 35.4]

###

Answer each item with its documented TGI.
Tested on: HT29 colon
Assay: NCI tumour cell line growth inhibition, 48 h
Numbers only, in µM.

Cc1cc(NCc2cc(Nc3ccnc4cc(Cl)ccc34)ccc2F)nc(N2CCCC2)n1	2.27
CC(C)(C)c1ccc(OCCCCCCN2CCNCC2)cc1	10.5
CCCn1c(C)nc2c1C(=O)c1ccccc1C2=O	71.6
CC1CCCc2c(C#N)c(N)nc(-c3ccc(Cl)cc3)c21 (centres undefined)	44.4

Could I get TGI for every one of these entries?
1. CN(C(=O)Cc1cc(Cl)c(Cl)cc1N=C=S)[C@H]1CCCC[C@@H]1N1CCCC1
2. CCC1C(c2cc(OC)c(OC)c(OC)c2)c2cc3c(cc2OC1N1CCCC1)OCO3 (centres undefined)
3. COc1ccc(-c2n[nH]nc2-c2cc(OC)c3c(c2OC)OCO3)cc1
4. COc1cccc(NC(=O)c2sc3nc4c(cc3c2N)CN(Cc2ccccc2)CC4)c1
5. C/C=C/[P+](c1ccccc1)(c1ccccc1)c1ccccc1
6. O=c1cc(-c2ccccc2)[nH]c2cc(O)ccc12

18.7
10.9
13.7
15.2
12.9
46.1

###

Tested on: BT-549 breast
Experiment: NCI tumour cell line growth inhibition, 48 h
PROPERTY NAME: TGI

C[C@@H]1CC[C@H]2C(COCCOCC3=C(C(F)(F)F)O[C@@H]4O[C@@]5(C)CC[C@H]6[C@H](C)CC[C@@H]3[C@@]46OO5)=C(C(F)(F)F)O[C@@H]3O[C@@]4(C)CC[C@@H]1[C@]32OO4	> 100 µM
Cc1ccc(NC(=O)/C=C/c2ccccc2)c(C(N)=O)c1	> 100 µM
N#C/C(=C\c1ccccc1)C(=O)Nc1nnc(-c2ccccc2)o1	> 100 µM

Please look at the following molecule next.
Look up TGI: O=C1C=C(Br)c2c(-c3ccccc3)oc3cccc1c23
> 100 µM

###

System: OVCAR-8 ovarian
Test: NCI tumour cell line growth inhibition, 48 h
Answer each item with its documented TGI.

// below: answered molecules
C/C=C/[P+](c1ccccc1)(c1ccccc1)c1ccccc1	17.3 µM
CC(=O)OCC(OC(C)=O)C(OC(C)=O)C(C=NN(C(C)=O)S(=O)(=O)c1ccc(/C=C2\NC(=O)NC2=O)cc1)OC(C)=O (centres undefined)	> 100 µM
CC1CCCc2c(C#N)c(N)nc(-c3ccc(Cl)cc3)c21 (centres undefined)	> 100 µM
C=CC(=O)Nc1cccc(C)c1Nc1cc(-c2cccnc2Cc2c(C)c(OC)cc(OC)c2C)ncn1	50 µM

Could I get TGI for every one of these entries?
1. CC1C(O)C2(Oc3cc4c(c5c3[C@@H](CC5O)[C@H]2C)CCC2Cc3nc5c(nc3C[C@@]42C)CC2CCC3C4=C[C@H]6O[C@@]7(O[C@@](C)(CO)C[C@@H]7O)C(C)[C@@]6(O)[C@]4(C)[C@@H](O)CC3[C@]2(C)C5)OC1(C)C (some centres undefined)
2. CN(C)c1ccc2c(c1)Sc1cc(N(C)C)ccc1N2C(=O)c1ccccc1
3. Brc1cccc(C2SCc3nc4ccccc4n32)c1 (centres undefined)
4. N#C/C(=C\c1ccccc1)C(=O)Nc1nnc(-c2ccccc2)o1
5. COc1ccc(N2C(=O)C3c4[nH]c5c(C)cccc5c4C4CCC(C(C)(C)C)CC4C3C2=O)cc1 (centres undefined)
6. CCOC(=O)C(C)(c1cn(C)c2ccccc12)c1cn(C)c2ccccc12
7. CSc1nc(N)c(NC2OC(CO)C(O)C2O)c(=O)[nH]1 (centres undefined)
8. CN(C)CCCNC(=O)N/N=C/c1cccc([N+](=O)[O-])c1

1: 1.36 µM; 2: > 100 µM; 3: 60.7 µM; 4: > 100 µM; 5: > 10 µM; 6: > 100 µM; 7: > 100 µM; 8: > 100 µM

Could I get TGI for every one of these entries?
1. CN(/N=C(\C(=O)O)c1ccccc1)C1=NCCCN1
2. Cc1cc(N/N=C/c2nc(-c3ccc(Br)cc3)oc2C)c2cc(Cl)ccc2n1

> 100 µM
> 100 µM

Could I get TGI for every one of these entries?
1. CCOC(=O)c1sc2c(c1OC(=O)c1cccs1)c(=O)n(-c1ccccc1)c(=S)n2-c1ccccc1
2. CSCC1CC(c2ccc(Cl)cc2)=NO1 (centres undefined)
3. C=CCOC(=O)/C(=C\c1ccc(OC)c(OC)c1)c1ccc(OC)c(OC)c1
4. CC(=O)NC1=C(OS(=O)(=O)c2ccc(C)cc2)CN(C)C1=O
5. CC(=O)C1=CSC2[C@H](NC(=O)Cc3ccccc3)C(=O)N2C1C(=O)OC(c1ccccc1)c1ccccc1 (some centres undefined)

44.9 µM
> 100 µM
> 100 µM
20.3 µM
> 100 µM
